Tested on: KM12
Experiment: NCI tumour cell line growth inhibition, 48 h
Active and inactive are the calls of the source. Rule as the data show it: active = GI50 up to about 1.1 µM and inactive = higher.
Exercise: for every item that follows, state its recorded GI50.

Query block: What does the data say about its GI50? Entry: Cc1ncc([N+](=O)[O-])n1CCNC(=O)CCn1ccnc1[N+](=O)[O-]
Result block: > 100 µM (inactive)

Query block: Which GI50 value belongs to CC12CC3C(CC1SCC(=O)O2)C3(C)C (stereo unspecified) ?
Result block: > 100 µM (inactive)

Query block: What does the data say about its GI50? Entry: CC[N+](C)(CC)CCC(O)(c1ccccc1)c1ccccc1
Result block: > 100 µM (inactive)

Query block: # input molecule: O=C1C(Cl)C(c2cccc(Br)c2)N1c1c(O)c(Cl)cc(Br)c1Cl (stereo unspecified) ; wanted: its GI50
Result block: 16.7 µM (inactive)

Query block: For the molecule CC1CCCc2c(CC3CC(=O)NC(=O)C3)nc(N)nc21 (stereo unspecified) , what GI50 is on record?
Result block: > 100 µM (inactive)

Query block: Value lookup for GI50; key = CC(=O)C1=C(C)N2C(=NC3=C(CCc4ccccc43)C2c2ccc(F)cc2)S1 (stereo unspecified)
Result block: > 100 µM (inactive)

Query block: Need GI50, item Cc1cc(NS(=O)(=O)c2ccc(Nc3c4ccccc4nc4c(C(=O)NC(CO)(CO)CO)cccc34)cc2)no1
Result block: 25.2 µM (inactive)

Query block: Look up GI50: CC(C)(CCCCC(C)(C)NC1=NCCO1)NC1=NCCO1
Result block: > 10 µM (inactive)

Query block: Param item = COc1ccc2c(c1OC(C)=O)C1=CC(=O)CCC13CCNC3C2 (stereo unspecified) ; retrieve measured GI50.
Result block: > 100 µM (inactive)

Query block: Requested field: GI50. Item: CC12Nc3ccccc3N1C(=O)c1ccccc12 (stereo unspecified)
Result block: > 100 µM (inactive)

Query block: Given the molecule CC(C)(C)NC(=O)NC12CC3CC(CC(F)(C3)C1)C2 , what is its reported GI50?
Result block: > 100 µM (inactive)

* * *

Tested on: DMS-114
Experiment: NCI tumour cell line growth inhibition, 48 h
The source made the active and inactive calls. No stated cut-off is given here; in the data, active = GI50 up to about 1.1 µM and inactive = higher.
Consider the following compounds; for each one, report its GI50.

Query block: What reported GI50 corresponds to CC(=O)Nc1ccc(-c2nnc(SCC(=O)Nc3ccc([N+](=O)[O-])cc3)o2)cc1 on DMS-114?
Result block: 3.3 µM (inactive)

Query block: Find GI50 (DMS-114) for the entry Oc1ncc(N(CCCl)CCCl)c(O)n1 [URACIL MUSTARD]
Result block: 14 µM (inactive)

Query block: Which measured GI50 belongs to CN(C)c1ccc(N=O)c(O)c1.CN(C)c1ccc(N=O)c(O)c1.[SiH4] , tested on DMS-114?
Result block: 3.72 µM (inactive)

Query block: Param readout= GI50; system= DMS-114; entry= N#C/C(=C\c1ccccc1F)C(=O)c1ccccc1 ; returns value.
Result block: > 100 µM (inactive)

Query block: Observed GI50 on DMS-114 for c1ccc(C2(c3ccccc3)SSC3(S2)C2CC4CC(C2)CC3C4)cc1 (configuration not stated) , please.
Result block: > 100 µM (inactive)

Query block: Fill in the recorded GI50 for this compound, with DMS-114 as test system: COc1c(Br)cc(Br)c(OC)c1-c1ccc[nH]1
Result block: 74.6 µM (inactive)

Query block: // fetch DMS-114 GI50 for COc1ccc(C(=O)C(c2ccc(OC)cc2)C2(O)C(=O)Nc3c2ccc(Cl)c3C)cc1 (configuration not stated)
Result block: > 100 µM (inactive)

* * *

Tested on: UACC-62
Assay: NCI tumour cell line growth inhibition, 48 h
Activity calls are given as the source filed them. Rule as the data show it: active = GI50 up to about 1.1 µM and inactive = higher.
Assignment: determine reported GI50 for the given molecules.

Query block: For COc1cc(/C=C2/C(=O)N(C(=O)OCc3ccccc3)C(Cc3cc(OC)c(OC)c(C)c3OC)C(=O)N2Cc2ccccc2)c(OC)c(C)c1OC (stereo not given) , what is its reported GI50?
Result block: > 100 µM (inactive)

Query block: Report GI50 for NC(c1ccccc1)(C(F)(F)F)P1(=O)OC(=O)c2ccccc2O1 (stereo not given) please.
Result block: > 100 µM (inactive)

Query block: Report GI50 for CC(C(=O)N1C(=O)N(C(=O)[C@H](C)C(O)c2ccccc2)[C@H](c2ccccc2)[C@H]1c1ccccc1)[C@@H](O)c1ccccc1 (stereo not given in full) please.
Result block: 14.6 µM (inactive)

Query block: Look up GI50: Nc1ncnc2c1ncn2CCOC(c1ccccc1)P(=O)(O)O (stereo not given)
Result block: > 100 µM (inactive)

Query block: Name the recorded GI50 for C[C@@]1(OC(=O)c2cc([N+](=O)[O-])cc([N+](=O)[O-])c2)C[C@@H]2CCCC[C@@H]21 .
Result block: > 100 µM (inactive)

Query block: Requested read-out: GI50. Entry: CCC1CN2CCc3cc(OC)c(OC)cc3C2CC1CC1c2cc(OC)c(OC)cc2CCN1C(=O)C1CCCN1C(=O)OCc1ccccc1 (stereo not given)
Result block: 16.1 µM (inactive)

Query block: Returns the measured GI50 for the input molecule. Input: COC(=O)c1ccc(NCc2c(O)ccc(O)c2Br)cc1Cl
Result block: 15.7 µM (inactive)

Query block: Entry O=C1C2CCCC2N1Cc1ccccc1 (stereo not given) has what GI50?
Result block: > 100 µM (inactive)

Query block: Return reported GI50; argument: CCCCCCCCCCCCCCCC(=O)OC1C(O)C(O)C(O)C(O)C12CO2 (stereo not given)
Result block: 28.4 µM (inactive)

Query block: Tell me the measured GI50 of Cc1coc2c1CC1OC1(C)CCC1OC1(C)C2 (stereo not given) , please.
Result block: > 100 µM (inactive)

* * *

Test system: SW-620
Assay: NCI tumour cell line growth inhibition, 48 h
Activity calls are given as the source filed them. Cut-off read from the data, not from the text of the source: active = GI50 up to about 1.1 µM and inactive = higher.
Hi! Could you answer with just one of these? active, inactive

Query block: What did this assay record as the result for O=C1CC2(CCC(O)(c3ccco3)C(C(=O)c3ccco3)C2)C(=O)c2ccccc2N1 (centres undefined) ?
Result block: inactive

Query block: Tell me the assay call for O=C1C(=CNC(=S)c2ccccc2)C(=O)c2ccccc21 please.
Result block: inactive

Query block: Which outcome was assigned to CCOc1ccc2[nH]c3c(C)c4ccncc4c(C)c3c2c1 in this test?
Result block: active

Query block: What call does the record list for CC(C)c1ccc(C2NC(S)=NC3=C2c2ccccc2C3=O)cc1 (centres undefined) ?
Result block: inactive

Query block: What outcome does the record of this test show for Nc1cccc(OCC2CCCN3CCCCC23)c1 (centres undefined) ?
Result block: inactive

Query block: Assay result, entry CC(=O)NC1CC(C(C)(C)NC(C)=O)CC=C1C (centres undefined) — outcome?
Result block: inactive

Query block: Give the logged outcome of this assay for the following compound: COc1ccc2c(c1)CC[C@@H]1[C@@H]2CC[C@]2(C)C(=O)/C(=C/c3ccncc3)C[C@@H]12
Result block: inactive

Query block: What call does the record list for CC[C@H](C)C1=C(OC(C)=O)[N@+]2([O-])Oc3ccc(-c4c(OC(C)=O)c(OC(C)=O)c(-c5ccc(OC(C)=O)cc5)c(OC(C)=O)c4OC(C)=O)cc3O[C@]2([C@@H](C)CC)C(=O)N1OC(C)=O ?
Result block: inactive

Query block: Can you look up the reported call for O=C(/C=C/CC(O)(c1ccccc1)c1ccccc1)Nc1ccccc1Cl for me?
Result block: inactive

* * *

Tested on: KM12
Assay: NCI tumour cell line growth inhibition, 48 h
Activity calls are given as the source filed them. Cut-off read from the data, not from the text of the source: active = GI50 up to about 1.1 µM and inactive = higher.
METRIC: GI50

Query block: // GI50 lookup, key: CC(C)CC(NC(=O)C(CI)Cc1ccccc1)C(=O)Nc1ccccc1 (stereo unspecified)
Result block: > 100 µM (inactive)

Query block: Name the recorded GI50 for CC(C)C(/C=C/c1ccc(Br)cc1)=N\NC(N)=O .
Result block: > 100 µM (inactive)

Query block: GI50 lookup needed for CCOC(=O)CN1C(=O)c2cc([N+](=O)[O-])cc3cc([N+](=O)[O-])cc(c23)C1=O , thanks.
Result block: > 100 µM (inactive)

Query block: // returns reported GI50 for input S=C1CC(c2ccccc2)Sc2cc(Cl)ccc2N1 (stereo unspecified)
Result block: 3.97 µM (inactive)

Query block: What measured GI50 goes with CCO/N=C(/CC)c1ccc(Br)s1 ?
Result block: > 100 µM (inactive)

Query block: # get_value(readout='GI50', item= Nc1nc(SCC(=O)c2ccc(Br)cc2)c2nc[nH]c2n1 )
Result block: 44.8 µM (inactive)

* * *

Test system: MDA-MB-231
Experiment: NCI tumour cell line growth inhibition, 48 h
Calls of active or inactive are those of the source. Cut-off read from the data, not from the text of the source: active = GI50 up to about 1.1 µM and inactive = higher. Positions of bridges follow the written chain, without caps; N, C: chain ends. Non-standard residues stand in square brackets, D forms with d. Residues, ends and D or L forms follow the SMILES beside them. *: point of attachment. Cbz = O=C(OCc1ccccc1)*; Aib = CC(C)(N)C(=O)O; OBn = c1ccc(CO*)cc1; βAla = NCCC(=O)O
Please answer using one outcome listed in active, inactive

Query block: # fetch the recorded call for CC1(C)NC(=O)C(NC(=O)C(CC(=O)OCc2ccccc2)NC(=O)OCc2ccccc2)CCCCNC(=O)CCNC1=O (stereo unspecified) (Cbz-D(OBn)K[Aib][βAla]; lactam 2-C; configuration not given here) here
Result block: inactive

Query block: Fill in: this test's call for CC(C)c1ccc(C2NC(S)=NC3=C2c2ccccc2C3=O)cc1 (stereo unspecified) is ___
Result block: inactive

Query block: Tell me the recorded outcome of this test for O=[N+]([O-])c1cc(Cl)ccc1S(=O)(=O)c1ccccc1 .
Result block: inactive

Query block: Call for entry C/C=C1/CN2CCC34C(=C(C(=O)OC)C1CC23)Nc1ccc(O)cc14 (stereo unspecified) :
Result block: inactive

Query block: Outcome? O=C(/C=C/c1csc(-c2ccccc2)n1)NCc1ccc(C(=O)NCCc2ccccc2)cc1
Result block: inactive

Query block: Could you please tell me the result logged for Cn1c(=O)c2sc3c4sc5c(=O)n(C)c6ccccc6c5c4sc3c2c2ccccc21 in this assay?
Result block: inactive

Query block: Assay outcome for CC(=O)C1=C(C)N2C(=NC3=C(CCc4ccccc43)C2c2ccc(F)cc2)S1 (stereo unspecified) : what was it?
Result block: inactive

Query block: Please state the recorded outcome for this compound: O=C(NCCCCCCO)c1cccc2cc3ccccc3nc12
Result block: inactive

Query block: Dear colleague, could you share the recorded outcome for CC12Nc3ccccc3N1C(=O)c1ccccc12 (stereo unspecified) when you have a moment?
Result block: inactive

Query block: Dear colleague, could you share the recorded outcome for CCOC(=O)C(Cc1ccc(N(CCCl)CCCl)cc1)NC(=O)C(Cc1ccccc1)NC=O (stereo unspecified) when you have a moment?
Result block: active

Query block: Could you please tell me the result logged for Cc1coc2c1CC1OC1(C)CCC1OC1(C)C2 (stereo unspecified) in this assay?
Result block: inactive

Query block: Can you look up the reported call for CC(=O)C1C(=O)C(=O)N(c2ccc(Br)cc2)C1=O (stereo unspecified) for me?
Result block: inactive

Query block: Lab log entry: Cc1ccc(O)c(Cc2nc3ccccc3nc2-c2cccc(Br)c2)c1 — outcome as called in the assay?
Result block: inactive

Query block: Called result for O=C(O)C(F)(OC(F)(F)C(F)(F)C(F)(F)F)C(F)(F)F (stereo unspecified)
Result block: inactive

Query block: So what was the verdict on CC(C)CC(NC(=O)C(CI)Cc1ccccc1)C(=O)Nc1ccccc1 (stereo unspecified) in this test?
Result block: inactive

Query block: What did this assay record as the result for CC1N(C)C(=O)OC12CCN(CCCC(=O)c1ccc(F)cc1)CC2 (stereo unspecified) ?
Result block: inactive

Query block: Query: recorded result category for O=C(O)c1cc2ccccc2c(Cc2c(O)c(C(=O)O)cc3ccccc23)c1O in this test
Result block: inactive

Query block: So what was the verdict on O=Cc1cc2c(s1)C(=O)c1sccc1C2=O in this test?
Result block: active

Query block: Please let me know the test result on file for O=C1Nc2ccccc2/C1=N/N1C(=O)/C(=C/c2ccccc2S)N=C1c1ccccc1 .
Result block: inactive

Query block: Kindly provide the recorded test outcome for the following compound: CC(CC(=O)O)C(C(=O)O)C(=O)O (stereo unspecified)
Result block: inactive

Query block: For this compound, state the assay outcome: COc1ccc(N2C(=O)CSC2c2cc3cc(Br)ccc3nc2Cl)cc1 (stereo unspecified)
Result block: inactive
